# credit: paper PMC11883000

biological target: ASH1L PHD finger D2595A (human, UniProt Q9NR48 2579-2629, Substitution of D2595 with alanine)
Ends that are not written are not given here. Me3 = trimethyl on lysine side chain
REPORTED ENDPOINT: Kd (µM)

* ARTK(Me3)QTARKSTG [histone H3K4me3 peptide (aa 1-12 of H3)] | 6.7
